Values were extracted from patent US8030547B2.

Target: GST fusion P171H/W548L mutant ALS protein (Oryza sativa subsp. japonica, UniProt Q6K2E8, P171H/W548L)
Construct: made in house; host or cells: E. coli, pGEX-2T(ALS-P171H, W548L mutant); crude supernatant
Sequence (Q6K2E8 44-644 P171H/W548L): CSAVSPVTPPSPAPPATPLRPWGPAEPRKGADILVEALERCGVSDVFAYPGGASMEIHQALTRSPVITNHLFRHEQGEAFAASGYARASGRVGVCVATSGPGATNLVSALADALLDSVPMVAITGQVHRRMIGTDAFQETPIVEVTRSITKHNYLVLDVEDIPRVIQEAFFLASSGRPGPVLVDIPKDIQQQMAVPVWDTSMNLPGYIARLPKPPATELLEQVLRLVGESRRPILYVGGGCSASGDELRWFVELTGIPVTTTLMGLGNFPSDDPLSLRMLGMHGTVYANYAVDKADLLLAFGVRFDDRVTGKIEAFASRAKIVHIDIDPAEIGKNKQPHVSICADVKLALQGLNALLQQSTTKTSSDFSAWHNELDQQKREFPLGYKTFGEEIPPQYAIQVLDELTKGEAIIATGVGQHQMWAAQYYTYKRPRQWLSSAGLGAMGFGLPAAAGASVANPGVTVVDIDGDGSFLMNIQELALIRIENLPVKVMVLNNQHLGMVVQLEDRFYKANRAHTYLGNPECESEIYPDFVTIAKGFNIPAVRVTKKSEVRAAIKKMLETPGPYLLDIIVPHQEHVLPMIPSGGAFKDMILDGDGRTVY
Assay: Herbicide sensitivity of ALS protein expressed in E. coli (crude enzyme solution), P171H/W548L
Format: biochemical, rice (Oryza sativa var. Kinmaze)
Settings: read-out: inhibition % at the highest concentration among the concentrations tested, P171H/W548L mutant; in 100 μM
valueType: inhibition at 100 µM
Write the numeric value and follow it with the unit.

Examples from the recorded data:
>>> endpointresult("COc1cc(OC)nc(Oc2cccc(Oc3nc(OC)cc(OC)n3)c2C(=O)O)n1 [bispyribac-sodium]")
"5%"
>>> endpointresult("COc1cc(OC)nc(Sc2cccc(Cl)c2C(=O)O)n1 [pyrithiobac-sodium]")
"20%"
>>> endpointresult("CC(C)C1(C)N=C(c2nc3ccccc3cc2C(=O)O)NC1=O (stereo not shown)")
"13%"

Tell me the measured inhibition at 100 µM of `COc1nc(C)nc(NC(=O)NS(=O)(=O)c2ccccc2Cl)n1` , please.
16%

* * *

Target: GST fusion S627I mutant ALS protein (Oryza sativa subsp. japonica, UniProt Q6K2E8, S627I)
Construct: an expression vector having the full-length wild type ALS cDNA incorporated into the Eco RI site of pGEX-2T; made in house; host or cells: E. coli JM109, pGEX 2T(ALS-S627I mutant); crude supernatant
Sequence (Q6K2E8 44-644 S627I): as the sequence (Q6K2E8 44-644 P171H/W548L) above, with H128P, L505W, S584I counted along it
Experiment: Herbicide sensitivity of ALS protein expressed in E. coli (crude enzyme solution), S627I
Type: biochemical, rice (Oryza sativa var. Kinmaze)
Conditions: S627I mutant; 37° C., 30 minutes, 10 mM valine; read-out: I50
valueType: IC50 (µM)
Dear colleague, please return just the value in µM, with no unit written.

Tell me the measured IC50 of `CON=C(C)c1cccc(Oc2nc(OC)cc(OC)n2)c1C(=O)O` , please.
22

* * *

Biological target: GST fusion P171H/R172S mutant ALS protein (Oryza sativa subsp. japonica, UniProt Q6K2E8, P171H/R172S)
Construct: made in house; host or cells: E. coli JM109, pGEX-2T(ALS P171H, R172S mutant); crude supernatant
Sequence (Q6K2E8 44-644 P171H/R172S): as the sequence (Q6K2E8 44-644 P171H/W548L) above, with R129S, L505W counted along it
Experiment: Herbicide sensitivity of ALS protein expressed in E. coli (crude enzyme solution), P171H/R172S
Assay type: biochemical, rice (Oryza sativa var. Kinmaze)
Conditions: P171H/R172S mutant vs wild type
Listed here: items and their measured RS ratio.
Write the number on its own, no unit after it.

>>> endpointresult("CON=C(C)c1cccc(Oc2nc(OC)cc(OC)n2)c1C(=O)O")
5.1
>>> endpointresult("COc1nc(C)nc(NC(=O)NS(=O)(=O)c2ccccc2Cl)n1")
420
>>> endpointresult("COc1cc(OC)nc(Oc2cccc(Oc3nc(OC)cc(OC)n3)c2C(=O)O)n1 [bispyribac-sodium]")
7.6

Tell me the measured RS ratio of COc1cc(OC)nc(Sc2cccc(Cl)c2C(=O)O)n1 [pyrithiobac-sodium] , please.
13

Tell me the measured RS ratio of CC(C)C1(C)N=C(c2nc3ccccc3cc2C(=O)O)NC1=O (centres unmarked) , please.
1.8

* * *

Molecular target: GST fusion W548L mutant ALS protein (Oryza sativa subsp. japonica, UniProt Q6K2E8, W548L)
Construct: an expression vector having the full-length wild type ALS cDNA incorporated into the Eco RI site of pGEX-2T; made in house; host or cells: E. coli JM109, pGEX 2T(ALS-W548L mutant); crude supernatant
Sequence (Q6K2E8 44-644 W548L): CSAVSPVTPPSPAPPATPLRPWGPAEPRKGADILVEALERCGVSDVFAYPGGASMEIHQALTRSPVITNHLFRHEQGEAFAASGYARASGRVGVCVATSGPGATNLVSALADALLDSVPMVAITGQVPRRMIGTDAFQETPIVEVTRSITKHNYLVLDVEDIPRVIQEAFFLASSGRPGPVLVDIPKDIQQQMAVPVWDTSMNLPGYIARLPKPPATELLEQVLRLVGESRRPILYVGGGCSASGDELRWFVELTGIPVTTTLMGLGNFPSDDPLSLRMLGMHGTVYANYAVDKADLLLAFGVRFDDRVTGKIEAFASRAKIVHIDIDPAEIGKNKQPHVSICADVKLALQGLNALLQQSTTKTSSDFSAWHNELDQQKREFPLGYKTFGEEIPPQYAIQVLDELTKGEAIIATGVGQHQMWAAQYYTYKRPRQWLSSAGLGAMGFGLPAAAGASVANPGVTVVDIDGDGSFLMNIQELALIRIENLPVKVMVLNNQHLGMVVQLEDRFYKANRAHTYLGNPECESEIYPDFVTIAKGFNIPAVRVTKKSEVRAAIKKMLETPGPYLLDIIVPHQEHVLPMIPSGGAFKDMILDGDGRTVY
Assay: Herbicide sensitivity of ALS protein expressed in E. coli (crude enzyme solution), W548L
Assay type: biochemical, rice (Oryza sativa var. Kinmaze)
valueType: pIC50
As a rule, pIC50 stands for the negative log10 of the concentration, concentration in M.

>>> endpointresult("COc1nc(C)nc(NC(=O)NS(=O)(=O)c2ccccc2Cl)n1 [chlorsulfuron]")
5.00

Param readout = pIC50; param system = GST fusion W548L mutant ALS protein (Oryza sativa subsp. japonica, UniProt Q6K2E8, W548L); param query = COc1cc(OC)nc(Oc2cccc(Oc3nc(OC)cc(OC)n3)c2C(=O)O)n1 [bispyribac-sodium] ; response: value
5.48
